These measurements were taken from patent US20240082346A1.

Target: T1, Human chemokine receptor CXCR4 (human, UniProt P61073 1-352)
T1 construct: whole, on cells; Membranes of Chem-1 cells expressing human CXCR4 (0.5 ug membrane protein per aliquot); also called C-X-C chemokine receptor type 4; fusin
T1 sequence (P61073 whole entry): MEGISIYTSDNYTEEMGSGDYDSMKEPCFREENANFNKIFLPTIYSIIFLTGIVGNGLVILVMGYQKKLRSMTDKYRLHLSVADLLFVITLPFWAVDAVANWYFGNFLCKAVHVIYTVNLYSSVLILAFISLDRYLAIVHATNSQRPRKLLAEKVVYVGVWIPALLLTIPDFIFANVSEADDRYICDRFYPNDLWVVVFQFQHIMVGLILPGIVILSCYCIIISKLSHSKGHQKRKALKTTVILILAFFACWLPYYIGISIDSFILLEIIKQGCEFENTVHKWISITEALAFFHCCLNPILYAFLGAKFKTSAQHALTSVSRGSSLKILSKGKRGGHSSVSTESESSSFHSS
Experiment: displacement of [125I]SDF-1α (0.03 nM) from membranes of Chem-1 cells expressing human CXCR4
Bridge positions count the residues as written; N and C are the ends. Square brackets hold non-standard residues; d marks the D form. * marks the point of attachment. 2Nal = N[C@@H](Cc1ccc2ccccc2c1)C(=O)O; Palmitoyl = CCCCCCCCCCCCCCCC(=O)*; Lauroyl = CCCCCCCCCCCC(=O)*; hCys = N[C@@H](CCS)C(=O)O; PhAc = O=C(Cc1ccccc1)*; Bz = O=C(c1ccccc1)*; Mpa = O=C(O)CCS; iPr = CC(C)*
readout_label: IC50 (nM)
Numeric only. Scale: nM

Tell me IC50 reported for [Mpa]YK(iPr)[dR][2Nal]GCK(iPr)G-NHEt (disulfide 1-7; also: acetate salt, Acetate salt; also called MLB-014) [cyclo[Mpa-Tyr-Lys(iPr)-(D-Arg)-2Nal-Gly-Cys]-Lys(iPr)-Gly-NH(Et)]
0.64

Using the record for [Mpa]YK(iPr)[dR][2Nal]GCK(iPr)K(Ac)-NHEt (disulfide 1-7; also: acetate salt, Acetate salt; also called MLB-027) [cyclo[Mpa-Tyr-Lys(iPr)-(D-Arg)-2Nal-Gly-Cys]-Lys(iPr)-Lys(Ac)-NH(Et)] , state its measured IC50.
0.48

Tell me measured IC50 for [Mpa]YK(iPr)[dR][2Nal]GCRG[dF]G-NH2 (disulfide 1-7; also: acetate salt, Acetate salt; also called MLB-002) [cyclo[Mpa-Tyr-Lys(iPr)-(D-Arg)-2Nal-Gly-Cys]-Arg-Gly-(D-Phe)-Gly-NH2] please.
0.92

Tell me measured IC50 for [Mpa]YK(iPr)[dR][2Nal]GCK(iPr)K(Lauroyl)-NHEt (disulfide 1-7; also: acetate salt, Acetate salt; also called MLB-028) [cyclo[Mpa-Tyr-Lys(iPr)-(D-Arg)-2Nal-Gly-Cys]-Lys(iPr)-Lys(lauroyl)-NH(Et)] please.
8.2

Recall and state the measured IC50 for Ac-CYK(iPr)[dR][2Nal]GCK(iPr)G-NH2 (linker 1-7 via 1,3‑bis(methylene)benzene; also: acetate salt, Acetate salt) [MLB-033 (compound of Example 23; structure given only as drawing CHEM-US-00016)] .
3.3

Please report IC50 for the following binder: Bz-CYK(iPr)[dR][2Nal]GCK(iPr)G-NH2 (linker 1-7 via 1,2‑bis(methylene)benzene; also: acetate salt, Acetate salt) [MLB-030 (compound of Example 20; structure given only as drawing CHEM-US-00013)]
1.3

Annotate the binder [Mpa]YK(iPr)[dR][2Nal]GC[dR]G[dF]G-NH2 (disulfide 1-7; also: acetate salt, also called MLB-004) [cyclo[Mpa-Tyr-Lys(iPr)-(D-Arg)-2Nal-Gly-Cys]-(D-Arg)-Gly-(D-Phe)-Gly-NH2] with its measured IC50.
0.7

Consider the binder Bz-CYK(iPr)[dR][2Nal]GCK(iPr)G-NH2 (disulfide 1-7; also: acetate salt, Acetate salt; also called MLB-023) [Benzoyl-cyclo[Cys-Tyr-Lys(iPr)-(D-Arg)-2Nal-Gly-Cys]-Lys(iPr)-Gly-NH2] and give its recorded IC50.
3.4

Give the reported IC50 for this binder. Bz-CYK(iPr)[dR][2Nal]G[hCys]K(iPr)G-NH2 (disulfide 1-7; also: acetate salt, Acetate salt; also called MLB-022) [Benzoyl-cyclo[Cys-Tyr-Lys(iPr)-(D-Arg)-2Nal-Gly-hCys]-Lys(iPr)-Gly-NH2]
0.71

Give the value of IC50 reported for the following: Ac-CYK(iPr)[dR][2Nal]GCK(iPr)G-NH2 (linker 1-7 via 1,2‑bis(methylene)benzene; also: acetate salt, Acetate salt) [MLB-032 (compound of Example 22; structure given only as drawing CHEM-US-00015)]
0.4

Fill in IC50 for record Bz-[hCys]YK(iPr)[dR][2Nal]GCK(iPr)G-NH2 (disulfide 1-7; also: acetate salt, Acetate salt; also called MLB-021) [Benzoyl-cyclo[hCys-Tyr-Lys(iPr)-(D-Arg)-2Nal-Gly-Cys]-Lys(iPr)-Gly-NH2]
0.42

Specify measured IC50 for [Mpa]YK(iPr)[dR][2Nal]GCK(iPr)K(Palmitoyl)-NHEt (disulfide 1-7; also: acetate salt, Acetate salt; also called MLB-029) [cyclo[Mpa-Tyr-Lys(iPr)-(D-Arg)-2Nal-Gly-Cys]-Lys(iPr)-Lys(palmitoyl)-NH(Et)] .
11

Please report the measured IC50 for PhAc-[hCys]YK(iPr)[dR][2Nal]GCK(iPr)G-NH2 (disulfide 1-7; also: acetate salt, also called MLB-025) [Phenylacetyl-cyclo[hCys-Tyr-Lys(iPr)-(D-Arg)-2Nal-Gly-Cys]-Lys(iPr)-Gly-NH2]
0.84

Please give measured IC50 of the following entry: Ac-[hCys]YK(iPr)[dR][2Nal]GCK(iPr)G-NHEt (disulfide 1-7; also: acetate salt, Acetate salt; also called MLB-026) [Ac-cyclo[hCys-Tyr-Lys(iPr)-(D-Arg)-2Nal-Gly-Cys]-Lys(iPr)-Gly-NH(Et)]
0.89

Supply IC50 value. Item: Ac-[hCys]YK(iPr)[dR][2Nal]GCK(iPr)G-NH2 (disulfide 1-7; also: acetate salt, Acetate salt; also called MLB-010) [Ac-cyclo[hCys-Tyr-Lys(iPr)-(D-Arg)-2Nal-Gly-Cys]-Lys(iPr)-Gly-NH2]
0.56

Give the reported IC50 for this binder. Bz-[hCys]YK(iPr)[dR][2Nal]GCK(iPr)G-NHEt (disulfide 1-7; also: acetate salt, Acetate salt; also called MLB-024) [Benzoyl-cyclo[hCys-Tyr-Lys(iPr)-(D-Arg)-2Nal-Gly-Cys]-Lys(iPr)-Gly-NH(Et)]
1.3

# return recorded IC50 for entry [Mpa]YR[dR][2Nal]GCRG[dF]G-NH2 (disulfide 1-7; also: acetate salt, Acetate salt; also called MLB-001) [cyclo[Mpa-Tyr-Arg-(D-Arg)-2Nal-Gly-Cys]-Arg-Gly-(D-Phe)-Gly-NH2]
24
